B1: FAM46D (parent)
chain: LELKFVSSLRRQFEFSVDSFQIVL

Variants of: B1
assayComment: protein stability index of a GFP-peptide fusion (GPS, HEK-293T) (PSI 1-6); higher = more stable;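 note: lentivirally expressed fusions sorted by FACS into six bins by GFP to DsRed ratio, PSI derived from sequencing read proportions per bin multiplied by bin number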
conditionContext: c terminus: a fixed tail appended
observable: protein stability index
Number only, no unit.

Look up protein stability index: LELKFVSSLRRQFEFSDDSFQIVL [V17D]
4.26

Look up protein stability index: LELKFVSSLRRQFEQSVDSFQIVL [F15Q]
3.16

Look up protein stability index: LELKFMSSLRRQFEFSVDSFQIVL [V6M]
2.61

Look up protein stability index: LELKFVSSYRRQFEFSVDSFQIVL [L9Y]
2.01

Look up protein stability index: LELKFVSWLRRQFEFSVDSFQIVL [S8W]
2.98

Look up protein stability index: LELKFVSSLRRQFEMSVDSFQIVL [F15M]
2.58

Look up protein stability index: LELKFVSSLRRQFEFPVDSFQIVL [S16P]
3.75

Look up protein stability index: LELKFVSSLRRQFEFSWDSFQIVL [V17W]
4.01

Look up protein stability index: LELKFVSSLRTQFEFSVDSFQIVL [R11T]
3.4

Look up protein stability index: LELRFVSSLRRQFEFSVDSFQIVL [K4R]
3.25

Look up protein stability index: LELKFVSSLWRQFEFSVDSFQIVL [R10W]
2.01

Look up protein stability index: LELKFVSSLRRQFEFSVDSFQGVL [I22G]
3.17

Look up protein stability index: LELKFVSSLRRQFEFSVDSFQIVH [L24H]
4.63

Look up protein stability index: IELKFVSSLRRQFEFSVDSFQIVL [L1I]
2.7

Look up protein stability index: LELKLVSSLRRQFEFSVDSFQIVL [F5L]
1.96

Look up protein stability index: LELKFVSSLRRQFEFSVDGFQIVL [S19G]
3.42

Look up protein stability index: LELKIVSSLRRQFEFSVDSFQIVL [F5I]
3.77

Look up protein stability index: LELKFVSSLLRQFEFSVDSFQIVL [R10L]
3.46

Look up protein stability index: LELKFFSSLRRQFEFSVDSFQIVL [V6F]
2.38
